measured-target: T1, cyno FcRn/b2M (cyno, UniProt Q8SPV9 24-297; Q8SPW0 21-119, biotinylated)
T1 construct: bought recombinant biotinylated protein (Immunitrack ITF05 or ACRO FCM-C82W5); also called cFcRn; cFcRn/cb2M
T1 sequence (Q8SPV9 24-297 limits assumed, chain 1 of 2): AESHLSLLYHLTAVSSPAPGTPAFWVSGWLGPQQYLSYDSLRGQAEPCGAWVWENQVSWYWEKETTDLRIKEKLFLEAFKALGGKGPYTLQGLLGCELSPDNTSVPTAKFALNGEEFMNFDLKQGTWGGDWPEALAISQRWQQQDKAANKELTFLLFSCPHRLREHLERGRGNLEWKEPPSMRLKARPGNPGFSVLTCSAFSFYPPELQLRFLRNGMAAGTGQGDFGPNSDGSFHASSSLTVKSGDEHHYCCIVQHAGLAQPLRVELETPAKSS
T1 sequence (Q8SPW0 21-119 limits assumed, chain 2 of 2): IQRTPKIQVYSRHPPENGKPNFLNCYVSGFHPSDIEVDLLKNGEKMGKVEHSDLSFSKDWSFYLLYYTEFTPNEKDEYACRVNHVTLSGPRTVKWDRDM
method-description: SPR off-rate; pH 7.4 vs pH 6.0;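 further: surface plasmon resonance with diluted periplasmic extracts flowed over ligand surfaces, 120 s association and 600–3600 s dissociation at 25 °C, running buffer containing 150 mM NaCl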
Items are presented alongside their recorded kd ratio pH 7.4/6.0.
// response body must contain only the number

Study these solved cases before continuing.
• T0263018B11 S30D (VHH, name in Kabat numbering, FLAG3-His6 tagged) VHH: EVQLVESGGGVVQPGGSLRLSCAASGFTFDSYAMYWVRQAPGKGLEWVSAISSGGGSTDYADSVKGRFTISRDNSKNTLYLQMNSLRPEDTALYYCAADTLYTSLTWYSYWGQGTLVTVSS = 65
• T0263018B11 S52D (VHH, name in Kabat numbering, FLAG3-His6 tagged) VHH: EVQLVESGGGVVQPGGSLRLSCAASGFTFSSYAMYWVRQAPGKGLEWVSAIDSGGGSTDYADSVKGRFTISRDNSKNTLYLQMNSLRPEDTALYYCAADTLYTSLTWYSYWGQGTLVTVSS = 61
• T0263018B11 S52T (VHH, name in Kabat numbering, FLAG3-His6 tagged) VHH: EVQLVESGGGVVQPGGSLRLSCAASGFTFSSYAMYWVRQAPGKGLEWVSAITSGGGSTDYADSVKGRFTISRDNSKNTLYLQMNSLRPEDTALYYCAADTLYTSLTWYSYWGQGTLVTVSS = 25

Next binder, kd ratio pH 7.4/6.0 to be filled in.
*Q* Please report the recorded kd ratio pH 7.4/6.0 for T0263018B11 S56V (VHH, name in Kabat numbering, FLAG3-His6 tagged) VHH: EVQLVESGGGVVQPGGSLRLSCAASGFTFSSYAMYWVRQAPGKGLEWVSAISSGGGVTDYADSVKGRFTISRDNSKNTLYLQMNSLRPEDTALYYCAADTLYTSLTWYSYWGQGTLVTVSS .
*A* 37
